Biological target: Tyrosine-protein kinase FRK (Homo sapiens) (UniProt P42685);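 also: values are mean inhibition of PTK5 (FRK) kinase activity from the GSK PKIS screening set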
Sequence (P42685 whole entry): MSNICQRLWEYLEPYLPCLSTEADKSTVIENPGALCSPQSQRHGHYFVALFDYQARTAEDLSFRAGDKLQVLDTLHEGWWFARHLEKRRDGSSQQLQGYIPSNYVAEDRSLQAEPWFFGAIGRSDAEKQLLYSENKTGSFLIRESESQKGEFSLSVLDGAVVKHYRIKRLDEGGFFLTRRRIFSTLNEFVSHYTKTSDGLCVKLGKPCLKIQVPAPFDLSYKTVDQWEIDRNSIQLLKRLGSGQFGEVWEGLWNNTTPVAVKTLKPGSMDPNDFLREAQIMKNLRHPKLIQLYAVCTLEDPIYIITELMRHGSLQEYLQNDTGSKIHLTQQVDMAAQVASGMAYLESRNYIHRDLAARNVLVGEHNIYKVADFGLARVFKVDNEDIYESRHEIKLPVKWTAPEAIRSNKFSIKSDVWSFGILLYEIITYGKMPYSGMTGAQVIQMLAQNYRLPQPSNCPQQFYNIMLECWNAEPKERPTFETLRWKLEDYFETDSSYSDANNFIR
Details: at 0.1 µM
Quick reference for inhibition among some compounds
Experimental Readout: inhibition (%)

> print(dat)
                                    compound  experimental.readout  reported.result
 1  CCN(CC)Cc1ccc(Nc2nccc(-c3cnn4ncccc34)n2)cc1            inhibition             2.63
 2  NC(=O)c1ccc(Oc2nccc(-c3c(-c4ccc(F)cc4)ncn3C3CCNCC3)n2)cc1            inhibition              2.8
 3  COc1ccc2cc(-c3c(-c4ccncc4)nc(-c4ccc(S(C)(=O)=O)cc4C)n3C)ccc2c1            inhibition             3.55
 4        CNC(=O)c1cncc(/C=C/c2c(C)cccc2C)c1            inhibition             1.71
 5  CN(C)CCOc1ccc(-c2cc(-c3ccc4c(c3)CCC4=NO)c(-c3ccncc3)o2)cc1            inhibition            -1.02
 6  CS(=O)(=O)CCNCc1ccc(-c2ccc3ncnc(Nc4ccc(OCc5ccccc5)c(Br)c4)c3c2)o1            inhibition             2.64
 7   O=C1Nc2ccc(I)cc2C1=Cc1cc(Br)c(O)c(Br)c1            inhibition             2.55
 8  C#Cc1cccc(Nc2ncnc3ccc(OCCCCNCCS(C)(=O)=O)cc23)c1            inhibition             5.22
 9  Cc1ccc(NC(=O)c2ccoc2)cc1-c1ccc(C(=O)NCC2CC2)cc1            inhibition              0.1
10  CS(=O)(=O)CCNCc1cc(-c2cc3c(Nc4ccc(OCc5cccc(F)c5)c(Cl)c4)ncnc3s2)cs1            inhibition             4.58
11  Fc1ccc(-c2ncn(CCCN3CCOCC3)c2-c2ccncc2)cc1            inhibition             0.05
12  COc1ccc2cc(-c3c(-c4ccncc4)nc(-c4ccc([S+](C)[O-])cc4C)n3C)ccc2c1 (stereo not given)            inhibition            -0.28
13  CN1CCN(CCCNc2nc3ccc(Oc4ccc(NC(=O)Nc5cc(C(F)(F)F)ccc5F)cc4)cc3[nH]2)CC1            inhibition            -0.13
14  O=C(Nc1n[nH]c2nc(-c3ccc(O)cc3)c(Br)cc12)C1CC1            inhibition             14.7
15  C/C(Nc1ccc(S(N)(=O)=O)cc1)=C1/C(=O)Nc2ccccc21            inhibition             1.09
16  CCc1ccc(Oc2nccc(-c3c(-c4ccc(F)cc4)ncn3C3CCNCC3)n2)cc1            inhibition             0.83
17    O=C1Nc2ccccc2/C1=C/Nc1ccc(-n2cncn2)cc1            inhibition             2.78
18     NC(=O)c1cc(-c2ccncc2)cc(-c2ccccc2)c1N            inhibition             3.05
19  Nc1nccc(-c2c(-c3ccc(F)cc3)ncn2C2CCC(O)CC2)n1 (stereo not given)            inhibition            -0.89
20  COc1cc(Nc2ncc3c(C)nc(-c4cccc(Oc5ccccc5)c4)n3n2)cc(OC)c1OC            inhibition              0.9
21  CCS(=O)(=O)c1ccc(OC)c(Nc2ncc(-c3cccc(-c4ccccc4F)c3)o2)c1            inhibition             0.61
22  CCC(=O)Nc1ccc(C)c(-c2ccc(C(=O)NCC3CC3)cc2)c1            inhibition              2.5
23  CN(C)CCCNc1nccc(-c2c(-c3ccc(F)cc3)nn3cc(C(F)(F)F)ccc23)n1            inhibition            -0.09
24  COc1cc(C)c(N(C)C(=O)CN(C)C)cc1Nc1nc(Nc2cccc(F)c2C(N)=O)c2cc[nH]c2n1            inhibition            -0.14
25  Cc1ccc(C(=O)NC2CCC2)cc1-c1ccc(C(=O)NCC2CC2)cc1            inhibition             1.45

The measurements presented in this section are drawn from ChEMBL document CHEMBL1961873.
